This collection of values is drawn from PubChem BioAssay (NCI).

Tested on: MOLT-4 leukemia
assay name: NCI-60 one-dose screen, 48 h (100 = growth as untreated, 0 = no growth, -100 = all killed)
settings: 10 µM unless noted
Compounds without any hit were thinned out: in the full panel of roughly 83,000, 20% have a hit.
Items are presented alongside their recorded growth.
Field: numeric (%). Do not append units.

Below, each entry is followed by its recorded growth result.
# molecule, system name, growth [%]
rows = [
    ("CC(C)(C)CC(C)(C)n1nnnc1C(Nc1nccs1)c1cc2cccc3ccc4cccc1c4c32 (centres undefined)", "MOLT-4 leukemia", 121),
    ("COc1cc(OC)c(S(N)(=O)=O)cc1C(=O)/C=C/c1ccc(C)cc1", "MOLT-4 leukemia", 21.1),
    ("O=S(=O)(NC1c2ccccc2C[C@H]1O)c1ccc(Cl)cc1Cl (some centres undefined)", "MOLT-4 leukemia", 105),
    ("CCCCCc1ccc(S(=O)(=O)Nc2cc(-c3csc(NC(=O)CN4CCN(C)CC4)n3)ccc2N2CCN(C)CC2)cc1", "MOLT-4 leukemia", -18.4),
    ("Nc1cc(F)ccc1NC(=O)c1ccc(NC(=O)C/C=C/c2cccnc2)cc1", "MOLT-4 leukemia", 40.7),
]

Read off the recorded growth for COc1ccc(C2CC(c3ccc(Nc4nc(NCCO)nc(N5CCOCC5)n4)cc3)=Nc3c(N)nc(N)nc3N2)cc1 (centres undefined)
102

Read off the recorded growth for COc1c(N2CC3CCCNC3C2)c(F)cc2c(=O)c(C(=O)N/N=C/c3ccccc3)cn(C3CC3)c12 (centres undefined)
79.3

Read off the recorded growth for `NS(=O)(=O)c1ccc(Nc2nc(N/N=C/c3c[nH]c4ccccc34)nc(Nc3ccccc3)n2)cc1`
19.9

Read off the recorded growth for `COc1ccc(CCN2C(=O)CSC2=S)cc1`
94.6
